- Test system: Bacillus subtilis, ATCC 23857
- Test Description: Minimal inhibitory concentration assay (microbroth dilution)
- Format: cell-based
- Conditions Used: Bacillus subtilis, ATCC23857, read-out: Minimal Inhibitory Concentrations B. subtilis ATCC 23857
*1 amine or outer side, *2 acyl side, *3 side chain or, on linkers, in order; H or OH if unused. Where a SMILES comes first, the peptide text is derived from it. Bridges are numbered along the chain shown (N, C = ends). [ ]: non-standard residue; d: D form. The star is where a group is joined. ξ: configuration not given here. Phe(3,5-F2) = N[C@@H](Cc1cc(F)cc(F)c1)C(=O)O; Morpholine(3S-CO) = O=C(O)[C@@H]1COCCN1; Pro(4R-Me) = C[C@H]1CN[C@H](C(=O)O)C1; NHPh(4-CF3) = FC(F)(F)c1ccc(N*)cc1; ξPro(4R-Me) = C[C@H]1CNC(C(=O)O)C1; NH(4-Me-phenyl) = Cc1ccc(N*)cc1; aThr = C[C@H](O)[C@H](N)C(=O)O; X5 = O=C(C1COCCN1[*:1])[*:2]; Pip = O=C(O)[C@@H]1CCCCN1; CO = O=C([*:1])[*:2]; ξP = O=C(O)C1CCCN1
The compounds listed here are annotated with their MIC.

Compound	MIC
C[C@@H]1NC(=O)[C@@H]2CCCCN2C(=O)[C@@H]2CCCN2C(=O)[C@@H](NC(=O)[C@H](Cc2cc(F)cc(F)c2)NC(=O)Nc2ccc(C(F)(F)F)cc2)[C@H](C)OC(=O)[C@@H]2CCCN2C1=O [Compound 16] ({NHPh(4-CF3)-CO}-[Phe(3,5-F2)][aThr]P[Pip]AP; ester 2-C)	0.4 µM
Cc1ccc(NC(=O)N[C@@H](Cc2cc(F)cc(F)c2)C(=O)N[C@@H]2C(=O)N3CCCC3C(=O)N3CCOCC3C(=O)N[C@@H](C)C(=O)N3C[C@H](C)CC3C(=O)O[C@H]2C)cc1 (stereo partly drawn) [Compound 47] ({NH(4-Me-phenyl)-CO}-[Phe(3,5-F2)][aThr][ξP][X5]A[ξPro(4R-Me)]; ester 2-C)	0.8 µM
COc1ccc(NC(=O)N[C@@H](Cc2ccccc2)C(=O)N[C@H]2COC(=O)[C@@H]3C[C@@H](C)CN3C(=O)[C@H](C)NC(=O)[C@@H]3CCCCN3C(=O)[C@@H]3CCCN3C2=O)cc1	1.56 µM
Cc1ccc(NC(=O)N[C@@H](Cc2cc(F)cc(F)c2)C(=O)N[C@@H]2C(=O)N3CCC[C@H]3C(=O)N3CCOC[C@H]3C(=O)N[C@@H](C)C(=O)N3C[C@H](C)C[C@H]3C(=O)O[C@H]2C)cc1 [Compound 210] ({NH(4-Me-phenyl)-CO}-[Phe(3,5-F2)][aThr]P[Morpholine(3S-CO)]A[Pro(4R-Me)]; ester 2-C)	0.02 µM
